- Tested on: SK-MEL-5 melanoma
- Procedure Summary: NCI tumour cell line growth inhibition, 48 h
Measured TGI by item
Property Measured: TGI (µM)

                                    compound  target_under_test  modifier_sign  value_measured
 0  CN(C)CC1CCCCCCCCCCC1=O (stereo not given)  SK-MEL-5 melanoma              >             100
 1     C=CCN1C(=O)C/C(=C2/CCC(=O)N2CC=C)C1=O  SK-MEL-5 melanoma              >             100
 2  Cn1cc(C2=C(c3cn(C)c4cc(Cl)ccc34)C(=O)NC2=O)c2ccccc21  SK-MEL-5 melanoma              =            2.39
 3   Fc1sc2c(c1F)C1CCC2C1 (stereo not given)  SK-MEL-5 melanoma              >             100
 4  O=C1/C(=C/c2ccccc2)CN(C(=O)Oc2ccccc2)C/C1=C\c1ccccc1  SK-MEL-5 melanoma              >             100
 5  CN1CCN(C2CC(=O)c3c(Cl)sc(Cl)c32)CC1 (stereo not given)  SK-MEL-5 melanoma              >            56.4
 6  CC(=O)N1C(=O)/C(=C\C(=O)c2ccc(Cl)cc2)c2ccccc21  SK-MEL-5 melanoma              =            39.8
 7  N#CC(NNC(=O)c1c(Cl)c(Cl)c(Cl)c(Cl)c1-c1nc2ccc(C(=O)c3ccccc3)cc2[nH]1)c1cccc(Oc2ccccc2)c1 (stereo not given)  SK-MEL-5 melanoma              =            38.5
 8  Clc1ccc(C2=NNC(c3cccc(Cl)c3)C2)cc1 (stereo not given)  SK-MEL-5 melanoma              =            28.1
 9  Cc1cc(N)c2cc(NC(=O)CCCCCCCCC(=O)Nc3ccc4nc(C)cc(N)c4c3)ccc2n1  SK-MEL-5 melanoma              >             100
10  Cc1c(-c2ccnc(N)n2)c2c(n1-c1ccccc1)C(=O)c1ccccc1C2=O  SK-MEL-5 melanoma              =            34.1
11  CN(C)/C=C/C(=O)c1cccc(C(=O)/C=C/N(C)C)n1  SK-MEL-5 melanoma              >             100
12   O=C1c2ccccc2-c2c1c1ccccc1c(=O)n2CCCNCCO  SK-MEL-5 melanoma              =           0.877
13  NS(=O)(=O)c1ccc(N=Nc2cc3ccccc3c(C(=O)O)c2O)cc1  SK-MEL-5 melanoma              >             100
14  COc1ccc(C(=O)C(CN(C)C)c2ccccc2)cc1 (stereo not given)  SK-MEL-5 melanoma              =            15.4
15            O=C(Nc1ccc(I)cc1F)c1cc(F)ccc1O  SK-MEL-5 melanoma              =           0.556
16         Cc1cnc2[nH]c(-c3sccc3C)cc(=O)c2c1  SK-MEL-5 melanoma              =            21.7
17  CC(C)c1cc(C(C)C)c(B(c2ccccc2)c2ccccc2)c(C(C)C)c1Br  SK-MEL-5 melanoma              >             100
18  CC(=O)O[C@H]1Cc2c([nH]c3ccccc23)[C@@H](c2ccc(Cl)cc2)N1C(=O)CCNC(C)(C)C  SK-MEL-5 melanoma              =            4.61
19  CC(C(=O)C(C)O[Si](c1ccccc1)(c1ccccc1)C(C)(C)C)=P(c1ccccc1)(c1ccccc1)c1ccccc1 (stereo not given)  SK-MEL-5 melanoma              =            8.12
